Test: TIMS collisional cross section (CCS, N2) of the lipid ion; higher = larger ion cross section
Conditions: sample type: plasma; ionization mode: positive; one isomer drawn
Measurement type: TIMS collisional cross section (Å²)

[
  {
    "Compound": "CCCCC/C=C\\C/C=C\\C/C=C\\C/C=C\\CCCC(=O)O[C@H](COC(=O)CCCCCCC/C=C\\CCCCCC)COP(=O)([O-])OCC[N+](C)(C)C [PC 16:1@_20:4] (ion (formula + adduct): [C44H78NO8P+H] 1+)",
    "TIMS collisional cross section, Å²": 285.8
  },
  {
    "Compound": "CCCCCCCCCC/C=C\\CCCCCCCC(=O)OC[C@@H](O)COP(=O)([O-])OCC[N+](C)(C)C [LPC 20:1_0:0] (ion (formula + adduct): [C28H56NO7P+H] 1+)",
    "TIMS collisional cross section, Å²": 239.3
  },
  {
    "Compound": "CCCCC/C=C\\C/C=C\\C/C=C\\CCCCCCC(=O)OC[C@@H](O)COP(=O)(O)OCCN [LPE 20:3] (ion (formula + adduct): [C25H46NO7P+H] 1+)",
    "TIMS collisional cross section, Å²": 217.3
  }
]
